assay: CC50 MT4 cytotoxicity (Cell-Titer Glo); type: cell-based; settings: human
reported.property: CC50

IN: Return value of CC50 for input N#C[C@@]1(c2ccc3c(N)ncnn23)O[C@H](COC(=O)OC2CCCCC2)[C@@H](O)[C@H]1O [Compound 35] , no commentary.
OUT: > 50 µM

IN: Return value of CC50 for input COCCOC(=O)OC[C@H]1O[C@@](C#N)(c2ccc3c(N)ncnn23)[C@H](O)[C@@H]1O [Compound 10] , no commentary.
OUT: > 50 µM

IN: Return value of CC50 for input N#C[C@@]1(c2ccc3c(N)ncnn23)O[C@H](COC(=O)OCC2CC(F)(F)C2)[C@@H](O)[C@H]1O [Compound 115] , no commentary.
OUT: > 50 µM

IN: Return value of CC50 for input N#C[C@@]1(c2ccc3c(N)ncnn23)O[C@H](COC(=O)OCC23CC(C2)C3)[C@@H](O)[C@H]1O [Compound 72] , no commentary.
OUT: > 50 µM

IN: Return value of CC50 for input CC1(C)[C@@H]2CC[C@@]1(C)[C@@H](OC(=O)OC[C@H]1O[C@@](C#N)(c3ccc4c(N)ncnn34)[C@H](O)[C@@H]1O)C2 [Compound 51] , no commentary.
OUT: 38.3 µM

IN: Return value of CC50 for input CC(C)OC(=O)Nc1ncnn2c([C@]3(C#N)O[C@H](COC(=O)OC(C)(C)C)[C@@H](O)[C@H]3O)ccc12 [Compound 63] , no commentary.
OUT: > 50 µM

IN: Return value of CC50 for input N#C[C@@]1(c2ccc3c(N)ncnn23)O[C@H](COC(=O)OCc2ccccc2)[C@@H](O)[C@H]1O [Compound 13] , no commentary.
OUT: 39.1 µM

IN: Return value of CC50 for input N#C[C@@]1(c2ccc3c(N)ncnn23)O[C@H](COC(=O)OCC2CCCC2)[C@@H](O)[C@H]1O [Compound 85] , no commentary.
OUT: > 50 µM

IN: Return value of CC50 for input CC1(C)C2CCC1(C)C(OC(=O)OC[C@H]1O[C@@](C#N)(c3ccc4c(N)ncnn34)[C@H](O)[C@@H]1O)C2 (stereo partly drawn) [Compound 71] , no commentary.
OUT: 47.8 µM

IN: Return value of CC50 for input N#C[C@@]1(c2ccc3c(N)ncnn23)O[C@H](COC(=O)OC23CC4CC(CC(C4)C2)C3)[C@@H](O)[C@H]1O [Compound 154] , no commentary.
OUT: > 50 µM

IN: Return value of CC50 for input N#C[C@@]1(c2ccc3c(N)ncnn23)O[C@H](COC(=O)Oc2ccccc2)[C@@H](O)[C@H]1O [Compound 7] , no commentary.
OUT: 47.4 µM

IN: Return value of CC50 for input CCOC(=O)OC[C@H]1O[C@@](C#N)(c2ccc3c(N)ncnn23)[C@@H]2OC(CC)O[C@@H]21 (stereo partly drawn) [Compound 132] , no commentary.
OUT: > 50 µM

IN: Return value of CC50 for input CC(C)OC(=O)OC[C@H]1O[C@@](C#N)(c2ccc3c(N)ncnn23)[C@H](OC(=O)OC(C)C)[C@@H]1OC(=O)OC(C)C [Compound 81] , no commentary.
OUT: 48.3 µM

IN: Return value of CC50 for input CC1=CCC(C(C)(C)OC(=O)OC[C@H]2O[C@@](C#N)(c3ccc4c(N)ncnn34)[C@H](O)[C@@H]2O)CC1 (stereo partly drawn) [Compound 155] , no commentary.
OUT: > 50 µM

IN: Return value of CC50 for input CC(=O)O[C@H]1[C@@H](OC(C)=O)[C@](C#N)(c2ccc3c(N)ncnn23)O[C@@H]1COC(=O)OC(C)(C)c1ccncc1 [Compound 79] , no commentary.
OUT: > 50 µM

IN: Return value of CC50 for input CC(C)OC(=O)Nc1ncnn2c([C@]3(C#N)O[C@H](COC(=O)OC(C)C)[C@@H](O)[C@H]3O)ccc12 [Compound 137] , no commentary.
OUT: > 50 µM

IN: Return value of CC50 for input CC(C)OC(=O)Nc1ncnn2c([C@]3(C#N)O[C@H](COC(=O)OC(C)C)[C@@H](OC(=O)OC(C)C)[C@H]3O)ccc12 [Compound 62] , no commentary.
OUT: > 50 µM

IN: Return value of CC50 for input N#C[C@@]1(c2ccc3c(N)ncnn23)O[C@H](COC(=O)OC2CC3(CCC3)C2)[C@@H](O)[C@H]1O [Compound 29] , no commentary.
OUT: > 50 µM

IN: Return value of CC50 for input N#C[C@@]1(c2ccc3c(N)ncnn23)O[C@H](COC(=O)OCCCCCC(=O)O)[C@@H](O)[C@H]1O [Compound 140] , no commentary.
OUT: > 50 µM

IN: Return value of CC50 for input CC(C)OC(=O)OC[C@H]1O[C@@](C#N)(c2ccc3c(N)ncnn23)[C@@H]2OC(c3ccccc3)O[C@@H]21 (stereo partly drawn) [Compound 100] , no commentary.
OUT: > 50 µM

IN: Return value of CC50 for input CCC(CC)COC(=O)OC[C@H]1O[C@@](C#N)(c2ccc3c(N)ncnn23)[C@H](O)[C@@H]1O [Compound 15] , no commentary.
OUT: > 50 µM

IN: Return value of CC50 for input C[C@@H](OC(=O)OC[C@H]1O[C@@](C#N)(c2ccc3c(N)ncnn23)[C@H](O)[C@@H]1O)c1ccccc1 [Compound 87] , no commentary.
OUT: > 50 µM

IN: Return value of CC50 for input COC(=O)O[C@H]1[C@@H](OC(=O)OC)[C@](C#N)(c2ccc3c(N)ncnn23)O[C@@H]1COC(=O)OC(C)C [Compound 135] , no commentary.
OUT: > 50 µM

IN: Return value of CC50 for input CC(C)COC(=O)OC[C@H]1O[C@@](C#N)(c2ccc3c(N)ncnn23)[C@H](O)[C@@H]1O [Compound 1] , no commentary.
OUT: > 46.4 µM

IN: Return value of CC50 for input CC(C)OC(=O)[C@H](COC(=O)OC[C@H]1O[C@@](C#N)(c2ccc3c(N)ncnn23)[C@H](O)[C@@H]1O)N(C)C [Compound 151] , no commentary.
OUT: > 50 µM

IN: Return value of CC50 for input CCC1O[C@H]2[C@@H](O1)[C@](C#N)(c1ccc3c(N)ncnn13)O[C@@H]2COC(=O)OC(C)C (stereo partly drawn) [Compound 133] , no commentary.
OUT: > 50 µM

IN: Return value of CC50 for input CCCCCCCCCCCCCCCCCCOC(=O)OC[C@H]1O[C@@](C#N)(c2ccc3c(N)ncnn23)[C@H](O)[C@@H]1O [Compound 126] , no commentary.
OUT: 27.7 µM

====

tested on: Respiratory syncytial virus recombinant with luciferase (RSV-Luc5) in HEp-2 cells; assay: microbe, parasite or virus in culture; type: cell-based; conditions: human respiratory syncytial virus, HEp-2, 72 h, read-out: RSV Hep2 EC50
pEC50: −log10 of the molar value.
Each entry gets f if its pEC50 stays under 6, and t if its pEC50 is 6 or above.

IN: Kindly determine if pEC50 recorded for N#C[C@@]1(c2ccc3c(N)ncnn23)O[C@H](COC(=O)OC2CC(F)(F)C2)[C@@H](O)[C@H]1O is above or exactly 6.
OUT: t

IN: Kindly determine if pEC50 recorded for CC(C)OC(=O)OC[C@H]1O[C@@](C#N)(c2ccc3c(N)ncnn23)[C@@H]2OC(c3ccccc3)O[C@@H]21 (stereo partly shown) is above or exactly 6.
OUT: f

IN: Kindly determine if pEC50 recorded for N#C[C@@]1(c2ccc3c(N)ncnn23)O[C@H](COC(=O)OC2CCC(F)(F)CC2)[C@@H](O)[C@H]1O is above or exactly 6.
OUT: t

IN: Kindly determine if pEC50 recorded for C[C@@H](OC(=O)OC[C@H]1O[C@@](C#N)(c2ccc3c(N)ncnn23)[C@H](O)[C@@H]1O)c1ccccc1 is above or exactly 6.
OUT: t

IN: Kindly determine if pEC50 recorded for CC(C)OC(=O)OC[C@H]1O[C@@](C#N)(c2ccc3c(N)ncnn23)[C@H](O)[C@@H]1O is above or exactly 6.
OUT: t

IN: Kindly determine if pEC50 recorded for N#C[C@@]1(c2ccc3c(N)ncnn23)O[C@H](COC(=O)OC2CCCCC2)[C@@H](O)[C@H]1O is above or exactly 6.
OUT: t

IN: Kindly determine if pEC50 recorded for CC1(OC(=O)OC[C@H]2O[C@@](C#N)(c3ccc4c(N)ncnn34)[C@H](O)[C@@H]2O)CCCCC1 is above or exactly 6.
OUT: f

IN: Kindly determine if pEC50 recorded for CCC(CC)COC(=O)OC[C@H]1O[C@@](C#N)(c2ccc3c(N)ncnn23)[C@H](O)[C@@H]1O is above or exactly 6.
OUT: t

IN: Kindly determine if pEC50 recorded for N#C[C@@]1(c2ccc3c(N)ncnn23)O[C@H](COC(=O)OCC2CCCC2)[C@@H](O)[C@H]1O is above or exactly 6.
OUT: t

IN: Kindly determine if pEC50 recorded for CCCOC(=O)OC[C@H]1O[C@@](C#N)(c2ccc3c(N)ncnn23)[C@H](O)[C@@H]1O is above or exactly 6.
OUT: t

IN: Kindly determine if pEC50 recorded for CC(C)(OC(=O)OC[C@H]1O[C@@](C#N)(c2ccc3c(N)ncnn23)[C@H](O)[C@@H]1O)c1ccncc1 is above or exactly 6.
OUT: f

IN: Kindly determine if pEC50 recorded for CC(C)COC(=O)OC[C@H]1O[C@@](C#N)(c2ccc3c(N)ncnn23)[C@@H]2OC(=O)O[C@@H]21 is above or exactly 6.
OUT: t

IN: Kindly determine if pEC50 recorded for COCCOC(=O)OC[C@H]1O[C@@](C#N)(c2ccc3c(N)ncnn23)[C@H](O)[C@@H]1O is above or exactly 6.
OUT: f

IN: Kindly determine if pEC50 recorded for CC[C@H](C)OC(=O)OC[C@H]1O[C@@](C#N)(c2ccc3c(N)ncnn23)[C@H](O)[C@@H]1O is above or exactly 6.
OUT: t

IN: Kindly determine if pEC50 recorded for CC(C)COC(=O)Nc1ncnn2c([C@]3(C#N)O[C@H](COC(=O)OCC(C)C)[C@@H](O)[C@H]3O)ccc12 is above or exactly 6.
OUT: f

IN: Kindly determine if pEC50 recorded for CC(C)(C)COC(=O)OC[C@H]1O[C@@](C#N)(c2ccc3c(N)ncnn23)[C@H](O)[C@@H]1O is above or exactly 6.
OUT: t

IN: Kindly determine if pEC50 recorded for N#C[C@@]1(c2ccc3c(N)ncnn23)O[C@H](COC(=O)OCCN2CCOCC2)[C@@H](O)[C@H]1O is above or exactly 6.
OUT: f

IN: Kindly determine if pEC50 recorded for CC1(C)[C@@H]2CC[C@@]1(C)[C@@H](OC(=O)OC[C@H]1O[C@@](C#N)(c3ccc4c(N)ncnn34)[C@H](O)[C@@H]1O)C2 is above or exactly 6.
OUT: f

IN: Kindly determine if pEC50 recorded for N#C[C@@]1(c2ccc3c(N)ncnn23)O[C@H](COC(=O)OC2CCOCC2)[C@@H](O)[C@H]1O is above or exactly 6.
OUT: f

IN: Kindly determine if pEC50 recorded for N#C[C@@]1(c2ccc3c(N)ncnn23)O[C@H](COC(=O)OCC23CCC(CC2)C3)[C@@H](O)[C@H]1O is above or exactly 6.
OUT: t

IN: Kindly determine if pEC50 recorded for N#C[C@@]1(c2ccc3c(N)ncnn23)O[C@H](COC(=O)OC2CCOC2)[C@@H](O)[C@H]1O (stereo partly shown) is above or exactly 6.
OUT: f

IN: Kindly determine if pEC50 recorded for CC(C)COC(=O)OC[C@H]1O[C@@](C#N)(c2ccc3c(N)ncnn23)[C@H](O)[C@@H]1O is above or exactly 6.
OUT: t
